# experimental system: GLP-1R (Homo sapiens)
# Sequence (P43220 24-463): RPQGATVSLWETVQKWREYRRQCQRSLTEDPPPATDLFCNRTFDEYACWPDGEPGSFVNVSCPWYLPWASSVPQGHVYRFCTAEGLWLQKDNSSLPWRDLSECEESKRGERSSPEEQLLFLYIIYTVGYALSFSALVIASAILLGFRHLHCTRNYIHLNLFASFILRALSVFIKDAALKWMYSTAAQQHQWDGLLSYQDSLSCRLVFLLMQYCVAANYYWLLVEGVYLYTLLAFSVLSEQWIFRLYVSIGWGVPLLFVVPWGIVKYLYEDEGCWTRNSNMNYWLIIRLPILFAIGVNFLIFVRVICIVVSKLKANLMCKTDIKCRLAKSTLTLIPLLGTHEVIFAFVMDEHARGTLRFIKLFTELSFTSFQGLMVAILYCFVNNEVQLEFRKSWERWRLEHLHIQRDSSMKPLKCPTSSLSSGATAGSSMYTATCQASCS
# protocol: GLP-1R cAMP assay of peptides (Tables 10, 14, 15)
# Type: cell-based
# measurement conditions: Table 14, peptide amides; read-out: cAMP EC50
Starred links: 1 amine or outer side, 2 acyl side, 3 side chain; linkers in the order of their positions; H or OH if unused. Non-standard residues stand in square brackets, D forms with d. Residues, ends and D or L forms follow the SMILES beside them. *: point of attachment. X1 = CCc1cc(OCCCCn2cc(COCCOCCOCCOCCOCCOCCOCCOCCN)nn2)ccc1-c1ccc(C[C@H](N[*:1])C(=O)[*:2])cc1; Bip(2'-Et,4'-O(CH2)4NH2) = CCc1cc(OCCCCN)ccc1-c1ccc(C[C@H](N)C(=O)O)cc1; Malonyl(2,2-Me2,histaminyl) = CC(C)(C(=O)NCCc1cnc[nH]1)C(=O)*; Nva(5-(3,5-Me2Ph)) = Cc1cc(C)cc(CCC[C@H](N)C(=O)O)c1; Ala(1H-tetrazol-5-yl) = N[C@@H](Cc1nnn[nH]1)C(=O)O; αMePhe(2-F) = C[C@](N)(Cc1ccccc1F)C(=O)O
property measured: EC50 (nM)
Could you give me the number in nM? Just the number is fine.

Known results for molecules:
- molecule: "CCc1cc(OCCCCn2cc(COCCOCCOCCOCCOCCOCCOCCOCCN)nn2)ccc1-c1ccc(C[C@H](NC(=O)[C@H](CC(=O)O)NC(=O)[C@H](CO)NC(=O)[C@@H](NC(=O)[C@](C)(Cc2ccccc2F)NC(=O)[C@@H](NC(=O)CNC(=O)[C@H](Cc2nn[nH]n2)NC(=O)C(C)(C)C(=O)NCCc2cnc[nH]2)[C@@H](C)O)[C@@H](C)O)C(=O)N[C@@H](CCCc2cc(C)cc(C)c2)C(N)=O)cc1 [M3190]"
  experimental system: "GLP-1R (Homo sapiens)"
  unit of measurement: "nM"
  EC50: 0.318
- molecule: "CCc1cc(OCCCCN)ccc1-c1ccc(C[C@H](NC(=O)[C@H](CC(=O)O)NC(=O)[C@H](CO)NC(=O)[C@@H](NC(=O)[C@](C)(Cc2ccccc2F)NC(=O)[C@@H](NC(=O)CNC(=O)[C@H](Cc2nnn[nH]2)NC(=O)C(C)(C)C(=O)NCCc2cnc[nH]2)[C@@H](C)O)[C@@H](C)O)C(=O)N[C@@H](CCCc2cc(C)cc(C)c2)C(N)=O)cc1 [M2642] ({Malonyl(2,2-Me2,histaminyl)}-[Ala(1H-tetrazol-5-yl)]GT[αMePhe(2-F)]TSD[Bip(2'-Et,4'-O(CH2)4NH2)][Nva(5-(3,5-Me2Ph))]-NH2)"
  experimental system: "GLP-1R (Homo sapiens)"
  unit of measurement: "nM"
  EC50: 0.0502

// next item, EC50 requested
Notebook entry, GLP-1R (Homo sapiens) assay: EC50 of CCc1cc(OCCCCn2cc(COCCOCCOCCOCCOCCOCCOCCOCCN)nn2)ccc1-c1ccc(C[C@H](NC(=O)[C@H](CC(=O)O)NC(=O)[C@H](CO)NC(=O)[C@@H](NC(=O)[C@](C)(Cc2ccccc2F)NC(=O)[C@@H](NC(=O)CNC(=O)[C@@H](N)Cc2nnn[nH]2)[C@@H](C)O)[C@@H](C)O)C(=O)N[C@@H](CCCc2cc(C)cc(C)c2)C(N)=O)cc1 [M6295] (H-[Ala(1H-tetrazol-5-yl)]GT[αMePhe(2-F)]TSD[X1][Nva(5-(3,5-Me2Ph))]-NH2) = ?
351

The reported numbers originate from patent US20250171516A1.
